Target: B-cell lymphoma 6 protein (Homo sapiens, UniProt P41182)
pIC50: −log10 of the molar value.
// pIC50 lookup, one value per entry

*Q* Look up and state reported pIC50 for CNC(=O)COc1cc2cc(Nc3nc(N4CCN(CC5CCN(c6cc(OC)cc7c6C(=O)N(C6CCC(=O)NC6=O)C7=O)CC5)CC4)ncc3Cl)ccc2n(C(C)C)c1=O (centres undefined) [US12310975, Example 414]
*A* > 8.00

* * *

Target: UniProt:P41182
pIC50: −log10 of the molar value.
// pIC50 lookup, one value per entry

The following compounds have reported results that may help.
Compound	pIC50
CNC(=O)COc1cc2cc(Nc3nc(N4CCC(CN5CCC6(CC5)CN(c5cccc(C(=O)NC7CCC(=O)NC7=O)c5F)C6)CC4)ncc3Cl)ccc2n(C(C)C)c1=O (stereo not drawn) [US12310975, Example 419]	> 8.00
CNC(=O)COc1cc2cc(Nc3nc(N4CCC(CN5CCCN(c6cccc(N7CCC(=O)NC7=O)c6)CC5)CC4)ncc3Cl)ccc2n(C(C)C)c1=O [US12310975, Example 498]	< 7.00

Now for another entry.
*Q* Look up and state reported pIC50 for CNC(=O)COc1cc2cc(Nc3cc(N4CCN(CC5CCN(c6ccc7c(c6)C(=O)N(C6CCC(=O)NC6=O)C7=O)CC5)CC4)ncc3Cl)ccc2n(C)c1=O (stereo not drawn) [US12310975, Example 253]
*A* > 8.00
